molecular target: Vascular endothelial growth factor receptor 2 (Homo sapiens) (UniProt P35968); assay: Inhibition of KDR assessed as residual activity at 5 uM
Sequence (P35968 whole entry): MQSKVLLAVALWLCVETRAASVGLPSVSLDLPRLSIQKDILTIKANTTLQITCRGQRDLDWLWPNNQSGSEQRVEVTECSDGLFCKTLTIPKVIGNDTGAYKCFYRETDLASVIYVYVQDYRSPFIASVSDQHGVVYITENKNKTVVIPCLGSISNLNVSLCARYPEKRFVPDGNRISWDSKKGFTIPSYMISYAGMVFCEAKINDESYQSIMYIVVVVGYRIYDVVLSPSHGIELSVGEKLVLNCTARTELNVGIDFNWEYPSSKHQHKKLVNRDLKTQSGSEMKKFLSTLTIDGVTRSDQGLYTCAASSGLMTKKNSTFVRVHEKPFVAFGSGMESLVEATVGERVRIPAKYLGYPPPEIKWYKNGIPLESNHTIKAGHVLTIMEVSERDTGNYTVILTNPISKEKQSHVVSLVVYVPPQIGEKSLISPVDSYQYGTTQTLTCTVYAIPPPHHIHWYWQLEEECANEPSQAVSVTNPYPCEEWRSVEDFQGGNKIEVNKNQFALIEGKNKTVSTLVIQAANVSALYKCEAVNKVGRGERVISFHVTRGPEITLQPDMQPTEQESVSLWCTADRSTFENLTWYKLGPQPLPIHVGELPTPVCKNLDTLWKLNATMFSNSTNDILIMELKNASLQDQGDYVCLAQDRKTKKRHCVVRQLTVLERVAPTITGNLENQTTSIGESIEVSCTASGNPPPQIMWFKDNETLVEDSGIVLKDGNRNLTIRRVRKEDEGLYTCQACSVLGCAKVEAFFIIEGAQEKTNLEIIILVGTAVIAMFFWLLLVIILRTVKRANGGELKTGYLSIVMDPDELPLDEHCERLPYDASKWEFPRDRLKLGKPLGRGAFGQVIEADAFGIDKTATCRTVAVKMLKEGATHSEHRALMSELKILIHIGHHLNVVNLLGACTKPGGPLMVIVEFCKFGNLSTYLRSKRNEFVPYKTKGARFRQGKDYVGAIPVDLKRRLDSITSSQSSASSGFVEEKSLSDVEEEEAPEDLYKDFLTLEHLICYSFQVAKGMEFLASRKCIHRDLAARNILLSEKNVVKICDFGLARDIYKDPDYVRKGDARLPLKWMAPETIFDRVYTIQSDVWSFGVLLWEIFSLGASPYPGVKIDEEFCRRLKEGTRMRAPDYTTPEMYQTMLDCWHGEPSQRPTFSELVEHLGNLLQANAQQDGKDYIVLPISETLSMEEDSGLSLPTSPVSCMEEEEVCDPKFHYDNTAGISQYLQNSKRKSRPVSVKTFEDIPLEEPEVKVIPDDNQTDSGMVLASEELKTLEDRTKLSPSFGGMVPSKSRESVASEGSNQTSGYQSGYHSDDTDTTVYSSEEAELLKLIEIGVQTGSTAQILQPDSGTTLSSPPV
test_readout: Activity (%)

> print(dat)
                                   molecule  test.readout  observed
1  O=C(NCCCn1ccnc1)c1ccc(O)c2[nH]c(-c3ccc(F)c(Cl)c3)nc12      Activity      85.3
2  O=C(NCCCn1cnc(Cl)c1Cl)c1ccc(O)c2[nH]c(-c3ccc(Cl)cc3Cl)nc12      Activity       109

I = O=C(O)COc1cccc(CCCNC(=O)c2ccc(O)c3[nH]c(-c4ccc(Cl)cc4)nc23)c1
II = CS(=O)(=O)Nc1ccc(CCNC(=O)c2ccc(O)c3[nH]c(-c4ccc(F)cc4F)nc23)cc1
Asked: Given I and given II , which shows the smaller recorded Activity? Indicate your choice by writing its label.
Given back: I
